Reference source for all entries: PubChem BioAssay (NCI)

System: MDA-MB-231 breast
assayProtocol: NCI tumour cell line growth inhibition, 48 h; in the data active means GI50 below about 0.43 µM; inactive means the rest
The reply should be one of these categories: class 1 (active), class 0 (inactive)

Here's what some known entries look like.
{"compound": "COc1ncc(-c2ccc3nc(N)n(-c4ccccc4C(F)(F)F)c(=O)c3c2)cc1S(=O)(=O)Nc1ccc(F)cc1F", "systemTested": "MDA-MB-231 breast", "assignedClass": "class 1"}
{"compound": "COc1ccc2c(c1)OCC1c3cc(OC)ccc3OC21 (stereo unspecified)", "systemTested": "MDA-MB-231 breast", "assignedClass": "class 0"}
{"compound": "O[C@@H]1CCCCN1Cc1cc2cc3c(cc2c2cc(OCc4ccccc4)ccc12)OCO3", "systemTested": "MDA-MB-231 breast", "assignedClass": "class 0"}
{"compound": "CC1(C)N=C(N)N=C(N)N1c1cccc(CC(=O)Nc2ccccc2)c1", "systemTested": "MDA-MB-231 breast", "assignedClass": "class 0"}

Any idea what this test logged for CCCCCCCCCCCCNC(=O)N[C@H](C(=O)N[C@H]1/C=C/OCCNC(=O)/C=C/[C@H](C(C)C)NC1=O)C(C)C ?
class 0

Any idea what this test logged for CN(C)c1ccc(-c2cc(-c3cccc(NS(C)(=O)=O)c3)nc(N)c2C#N)cc1 ?
class 1

Any idea what this test logged for C=CN(C(=O)N1CCN(c2cc3c(cc2F)c(=O)c(C(=O)O)cn3C2CC2)CC1)c1nc(-c2ccc(C)cc2)cs1 ?
class 0

Any idea what this test logged for COC(=O)[C@@H](C)C[C@H](Cc1ccccc1)NC(=O)c1nc([C@@H](C[C@H](C(C)C)N(C)C(=O)[C@@H](NC(=O)[C@H]2CC(=O)CCN2C)C(C)C)OC(C)=O)sc1C(C)C ?
class 1

Any idea what this test logged for COc1ccc(-c2cc(-c3ccc(Cl)cc3)c(C#N)c(=O)n2CCCCCC(=O)Nc2ccccc2N)cc1 ?
class 0

Any idea what this test logged for O=C(c1ccco1)c1c(C(F)(F)F)n([O-])c2cc(Cl)c(Cl)cc2[n+]1=O ?
class 0

Any idea what this test logged for CCN(CC)c1ccc(C=C2C(=O)NC(=S)NC2=O)cc1 ?
class 0

Any idea what this test logged for Cc1n[nH]c(C)c1-c1c(C)n[nH]c1C ?
class 0

Any idea what this test logged for CN(C)CCCn1c2c(c3ccc(N4CCNCC4)cc3c1=O)C(=O)c1ccccc1-2 ?
class 0

Any idea what this test logged for COc1cccc(-c2cc(-c3ccc(Nc4nc(Nc5ccc(Cl)cc5)nc(Nc5ccc(Cl)cc5)n4)cc3)nc(N)c2C#N)c1 ?
class 0

Any idea what this test logged for N#CCC1CCN(c2nc(Nc3ccc(N4CCC(O)CC4)cc3)c3c(=O)[nH]ncc3n2)CC1 ?
class 0

Any idea what this test logged for O=c1c2cc(F)ccc2sc2c(NCCCNCCO)nc3ccc(F)cc3c12 ?
class 0

Any idea what this test logged for CCN(CC)CCCC(C)Nc1ccnc2cc(OC)ccc12 (stereo unspecified) ?
class 0

----------
Test system: SNB-75 CNS
assayProtocol: NCI tumour cell line growth inhibition, 48 h
valueType: TGI (µM)
Number only, in µM; omit the unit.

{"compound": "O=c1[nH]c2c(ccc3cnccc32)c2c1CCC2", "TGI [µM]": 1.4}
{"compound": "O=C1C(=C2C(=O)c3ccccc3[N+]2=O)N([O-])c2ccccc21", "TGI [µM]": 83.8}
{"compound": "N/C(=N\\O)c1cn(C2OC(CO)C(O)C2O)c2ncnc(N)c12 (centres undefined)", "TGI [µM]": 6.17}

Name the reported TGI value associated with the compound O[C@@H]1CCCCN1Cc1cc2cc3c(cc2c2cc(OCc4ccccc4)ccc12)OCO3
3.08

Name the reported TGI value associated with the compound C[C@H]1CC(=O)C[C@@H]2CC[C@@H]3[C@H](CC[C@]4(C)C(OC(=O)c5cccc6c(=O)c7ccccc7[nH]c56)CC[C@@H]34)[C@]21C (some centres undefined)
92.8

----------
Tested on: TK-10 renal
assayProtocol: NCI tumour cell line growth inhibition, 48 h; in the data active = GI50 below about 0.43 µM; inactive = the rest
The reply should be one of these categories: label 1 = active, label 0 = inactive

Here's what some known entries look like.
{"compound": "CCc1ccc2cc3c(ccc4ccccc43)c3c2c1CC3", "assignedClass": "label 0"}
{"compound": "N=C(N)c1ccc(-c2ccc(-c3cccs3)s2)cc1F", "assignedClass": "label 0"}
{"compound": "CC1(C)CC[C@]2(C(=O)O)CC[C@]3(C)C(=CC[C@@H]4[C@@]5(C)C/C(=C/c6cccnc6)[C@H](O)C(C)(C)[C@@H]5CC[C@]43C)[C@@H]2C1", "assignedClass": "label 0"}
{"compound": "COc1cc(F)c(F)c(F)c1C(=O)c1cnc(NC2CCN(S(C)(=O)=O)CC2)nc1N", "assignedClass": "label 0"}
{"compound": "N#CCC1CCN(c2nc(Nc3ccc(N4CCC(O)CC4)cc3)c3c(=O)[nH]ncc3n2)CC1", "assignedClass": "label 1"}

Would you kindly look at the next entry?
Any idea what this test logged for Nc1nc(N)c2nc(CNc3ccc(C(=O)NC(CCC(=O)O)C(=O)O)cc3)cnc2n1 (stereo unspecified) ?
label 1

----------
Test system: SK-MEL-5 melanoma
assayProtocol: NCI tumour cell line growth inhibition, 48 h
Where a SMILES comes first, the peptide text is derived from it. The star is where a group is joined. Boc = CC(C)(C)OC(=O)*; OtBu = CC(C)(C)O*
Lab note: compare TGI against 40 µM. Equal or greater, write true (1). Smaller, write false (0).

Here's what some known entries look like.
{"molecule": "BrC(/C=N/Nc1nnc(-c2ccccc2)c(-c2ccccc2)n1)C(Br)c1ccccc1 (stereo not given)", "assignedClass": "true (1)"}
{"molecule": "CCCCCCCCCCCCNC(=O)N[C@H](C(=O)N[C@H]1/C=C/OCCNC(=O)/C=C/[C@H](C(C)C)NC1=O)C(C)C", "assignedClass": "false (0)"}
{"molecule": "Fc1cnccc1-c1nc2ccc3[nH]ncc3c2c2c1CCCC2", "assignedClass": "true (1)"}
{"molecule": "COc1cc2c(cc1O)CCN[C@@]21CS[C@H]2c3c(OC(C)=O)c(C)c4c(c3C(COC1=O)N1C2C2NC(Cc3cc(C)c(OC)c(O)c32)[C@@H]1C#N)OCO4 (stereo not given in full)", "assignedClass": "false (0)"}
{"molecule": "O=C(N=Nc1c(O)[nH]c2c(Cl)cc(Cl)cc12)C(=O)Nc1cccc(C(F)(F)F)c1", "assignedClass": "true (1)"}
{"molecule": "COC(=O)c1c(O)ccc2c1c1c(n2CCc2ccccc2)C(=O)c2ccccc2C1", "assignedClass": "true (1)"}
{"molecule": "COc1ccc2nc3cc(Cl)ccc3c(NCCCN(C)CCCNc3ccc4ncn5c6ccccc6c(=O)c3c45)c2c1", "assignedClass": "false (0)"}
{"molecule": "O=P(c1ccccc1)(c1ccccc1)C1CC=C2CCCCCC2C1 (stereo not given)", "assignedClass": "true (1)"}
{"molecule": "CC(C)(C)OC(=O)CC(NC(=O)OC(C)(C)C)C(=O)NC(Cc1ccccc1)C(N)=O (stereo not given) (Boc-Asp(OtBu)-Phe-NH2; configuration not given here)", "assignedClass": "true (1)"}

Would you kindly look at the next entry?
I'd appreciate it if you could say whether CCCCCCCCCCCCOC(=N)N1CCOCC1 has TGI at least equal to 40 µM.
false (0)

----------
We begin with a simple list: items and their reported TGI.
System: PC-3 prostate
assayProtocol: NCI tumour cell line growth inhibition, 48 h

Name the reported TGI value associated with the compound Cc1nn(-c2ccccc2)c2c1[C@@H](C)[C@H]1CC3(CC4(C)C[C@@H]3C1(C)c1c(C)nn(-c3ccccc3)c1N4C)N2C (some centres undefined)
> 100 µM

Name the reported TGI value associated with the compound CCc1c(N=[N+]=[N-])c2ccccc2oc1=O
> 100 µM

Name the reported TGI value associated with the compound O=c1oc2cc(O)ccc2c(O)c1C(c1ccc(/C=C/c2ccccc2)cc1)c1c(O)c2ccc(O)cc2oc1=O
> 100 µM

Name the reported TGI value associated with the compound C[C@@H](NC(=O)Nc1cccc(C(=O)Nc2cc(C(C)(C)C)ccc2C(=O)O)n1)c1ccccc1
79.1 µM

Name the reported TGI value associated with the compound COc1ccc2c(c1)OCC1c3cc(OC)ccc3OC21 (centres undefined)
> 100 µM

Name the reported TGI value associated with the compound COc1cc(N(CCC#N)CCC#N)ccc1/C(N=Nc1cccc([N+](=O)[O-])c1)=N\NC(=O)c1ccc(C)cc1
> 100 µM

Name the reported TGI value associated with the compound O=C(O)c1ccc2nc(-c3ccccn3)c(-c3ccccn3)nc2c1
> 100 µM

Name the reported TGI value associated with the compound CCN(CC)CCCC(C)Nc1ccnc2cc(OC)ccc12 (centres undefined)
21.8 µM

Name the reported TGI value associated with the compound CCOC(=O)n1c(=O)nc2c3c(ncn21)Oc1c(c(-c2ccccc2)nn1-c1ccccc1)C3c1ccc(Cl)cc1 (centres undefined)
3.1 µM
